Entry source: patent US20020177126A1

Target: Bac-F (UniProt P03420 26-524)
Sequence (P03420 26-524): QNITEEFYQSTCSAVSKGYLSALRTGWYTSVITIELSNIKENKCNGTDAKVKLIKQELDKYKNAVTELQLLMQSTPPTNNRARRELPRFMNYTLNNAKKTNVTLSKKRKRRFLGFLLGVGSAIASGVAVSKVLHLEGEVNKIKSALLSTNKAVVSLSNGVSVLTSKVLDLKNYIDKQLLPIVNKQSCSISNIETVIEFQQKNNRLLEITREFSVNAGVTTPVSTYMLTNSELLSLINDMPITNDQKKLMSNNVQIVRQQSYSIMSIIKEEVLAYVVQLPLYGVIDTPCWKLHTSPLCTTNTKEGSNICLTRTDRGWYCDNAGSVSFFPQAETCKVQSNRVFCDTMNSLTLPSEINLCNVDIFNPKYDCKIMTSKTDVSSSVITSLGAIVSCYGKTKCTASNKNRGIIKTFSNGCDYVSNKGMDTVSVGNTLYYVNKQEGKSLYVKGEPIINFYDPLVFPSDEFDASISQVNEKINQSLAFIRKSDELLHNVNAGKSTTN
Assay: BIAcore, Mab vs Bac-F, 1:1
Assay Endpoint: Kd (nM)
Please give a number only; it is taken to be in nM.

Query: Complete the entry with Kd for SYNAGIS® (antibody, V domains shown, also called SYNAGIS ®/SYNAGIS ® (HC/LC)) VH: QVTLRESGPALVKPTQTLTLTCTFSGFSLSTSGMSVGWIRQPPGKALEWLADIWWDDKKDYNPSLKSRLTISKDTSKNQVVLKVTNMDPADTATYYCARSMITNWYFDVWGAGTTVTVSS VL: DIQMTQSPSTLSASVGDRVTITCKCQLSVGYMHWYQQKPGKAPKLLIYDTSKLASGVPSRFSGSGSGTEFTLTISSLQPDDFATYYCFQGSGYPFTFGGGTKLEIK
Result: 3.9

Query: Complete the entry with Kd for P12f2 (monoclonal antibody) (antibody, V domains shown, also called Pf12; P1212) VH: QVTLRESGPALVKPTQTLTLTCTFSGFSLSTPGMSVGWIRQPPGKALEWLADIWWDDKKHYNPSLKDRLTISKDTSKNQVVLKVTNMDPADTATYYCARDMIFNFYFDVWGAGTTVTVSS VL: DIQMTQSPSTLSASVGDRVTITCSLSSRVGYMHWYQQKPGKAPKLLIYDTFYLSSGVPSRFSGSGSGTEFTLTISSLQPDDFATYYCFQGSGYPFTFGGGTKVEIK
Result: 0.31

Query: Complete the entry with Kd for A8c7 (monoclonal antibody) (antibody, V domains shown) VH: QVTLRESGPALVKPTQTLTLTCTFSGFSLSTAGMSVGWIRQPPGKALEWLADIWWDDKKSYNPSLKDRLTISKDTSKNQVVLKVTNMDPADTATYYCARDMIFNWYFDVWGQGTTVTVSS VL: DIQMTQSPSTLSASVGDRVTITCSPSSRVGYMHWYQQKPGKAPKLLIYDTRYQSSGVPSRFSGSGSGTEFTLTISSLQPDDFATYYCFQGSGYPFTFGGGTKLEIK
Result: 0.21

Query: Complete the entry with Kd for A1e9 (monoclonal antibody) (antibody, V domains shown) VH: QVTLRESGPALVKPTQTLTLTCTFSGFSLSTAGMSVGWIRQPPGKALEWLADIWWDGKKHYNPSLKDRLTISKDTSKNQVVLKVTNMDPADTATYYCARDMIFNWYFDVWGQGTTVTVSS VL: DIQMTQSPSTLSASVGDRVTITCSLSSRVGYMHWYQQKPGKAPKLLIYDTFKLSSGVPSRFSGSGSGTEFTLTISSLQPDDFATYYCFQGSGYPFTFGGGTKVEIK
Result: 0.33
